A short record of pKi observed with Carbonic anhydrase 9 (Homo sapiens) follows.
For clarity, pKi is expressed as the negative log10 of concentration in mol/L.

Observe how each entry below is paired with its result.
COC(=O)[C@H]1O[C@@H](n2cc(-c3ccc(S(N)(=O)=O)cc3)nn2)[C@H](O)[C@@H](O)[C@@H]1O : 8.08
CC(=O)OC[C@H]1O[C@@H](n2cc(-c3ccc(S(N)(=O)=O)cc3)nn2)[C@H](OC(C)=O)[C@@H](OC(C)=O)[C@@H]1O[C@H]1O[C@H](COC(C)=O)[C@@H](OC(C)=O)[C@H](OC(C)=O)[C@H]1OC(C)=O : 6.92
NS(=O)(=O)c1ccc(-c2cn([C@@H]3O[C@H](CO)[C@@H](O)[C@H]3O)nn2)cc1 : 6.92
CC(=O)OC[C@H]1O[C@@H](n2cc(-c3ccc(S(N)(=O)=O)cc3)nn2)[C@H](OC(C)=O)[C@@H](OC(C)=O)[C@H]1OC(C)=O : 6.96

// query What value of pKi has been reported for the following compound? CC(=O)OC[C@H]1OC(n2cc(-c3ccc(S(N)(=O)=O)cc3)nn2)[C@@H](OC(C)=O)[C@@H](OC(C)=O)[C@@H]1OC(C)=O (single isomer, unassigned)
// result 8.30

// query What value of pKi has been reported for the following compound? CC(=O)N[C@@H]1[C@@H](OC(C)=O)[C@H](OC(C)=O)[C@@H](COC(C)=O)O[C@H]1n1cc(-c2ccc(S(N)(=O)=O)cc2)nn1
// result 7.00

---

system: Carbonic anhydrase 1 (Homo sapiens, UniProt P00915)
Sequence (P00915 whole entry): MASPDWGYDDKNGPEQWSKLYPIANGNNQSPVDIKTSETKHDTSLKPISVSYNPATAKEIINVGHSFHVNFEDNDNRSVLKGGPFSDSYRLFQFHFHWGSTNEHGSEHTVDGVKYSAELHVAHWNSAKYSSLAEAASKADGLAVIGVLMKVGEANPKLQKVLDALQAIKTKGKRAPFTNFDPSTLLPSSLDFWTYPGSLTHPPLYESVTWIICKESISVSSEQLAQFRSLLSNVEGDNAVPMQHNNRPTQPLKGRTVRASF
Reported pKi values follow for various molecules
For clarity, pKi is expressed as the negative log10 of concentration in mol/L.

CC(=O)OC[C@H]1OC(n2cc(-c3ccc(S(N)(=O)=O)cc3)nn2)[C@@H](OC(C)=O)[C@@H](OC(C)=O)[C@@H]1OC(C)=O (single isomer, unassigned) : 8.80
CC(=O)OC[C@H]1O[C@@H](n2cc(-c3ccc(S(N)(=O)=O)cc3)nn2)[C@H](OC(C)=O)[C@@H](OC(C)=O)[C@H]1OC(C)=O : 5.37
CC(=O)OC[C@H]1O[C@@H](n2cc(-c3ccc(S(N)(=O)=O)cc3)nn2)[C@H](OC(C)=O)[C@@H](OC(C)=O)[C@@H]1OC(C)=O : 5.36

// moving on: another record for pKi
// query # query: pKi | item NS(=O)(=O)c1ccc(-c2cn([C@@H]3O[C@H](CO)[C@H](O)[C@H](O)[C@H]3O)nn2)cc1 | system: Carbonic anhydrase 1 (Homo sapiens, UniProt P00915)
// result 8.03

---

A short record of pKi observed with Carbonic anhydrase 2 (Homo sapiens) follows.
For clarity, pKi is expressed as the negative log10 of concentration in mol/L.

NS(=O)(=O)c1ccc(-c2cn(C3O[C@H](CO)[C@@H](O)[C@H](O)[C@@H]3O)nn2)cc1 (single isomer, unassigned) : 8.12

// query # query: pKi | item CC(=O)OC[C@H]1OC(n2cc(-c3ccc(S(N)(=O)=O)cc3)nn2)[C@@H](OC(C)=O)[C@@H](OC(C)=O)[C@@H]1OC(C)=O (single isomer, unassigned) | system: Carbonic anhydrase 2 (Homo sapiens)
// result 8.68

// query # query: pKi | item CC(=O)OC[C@H]1O[C@@H](n2cc(-c3ccc(S(N)(=O)=O)cc3)nn2)[C@H](OC(C)=O)[C@@H](OC(C)=O)[C@H]1OC(C)=O | system: Carbonic anhydrase 2 (Homo sapiens)
// result 8.06

// query # query: pKi | item NS(=O)(=O)c1ccc(-c2cn([C@@H]3O[C@H](CO)[C@@H](O)[C@H](O)[C@H]3O)nn2)cc1 | system: Carbonic anhydrase 2 (Homo sapiens)
// result 6.42

// query # query: pKi | item CC(=O)OC[C@H]1O[C@@H](n2cc(-c3ccc(S(N)(=O)=O)cc3)nn2)[C@H](OC(C)=O)[C@@H](OC(C)=O)[C@@H]1OC(C)=O | system: Carbonic anhydrase 2 (Homo sapiens)
// result 8.04
